System: ETA Receptor (Rattus norvegicus)
Construct: endogenous in cells; host or cells: MMQ rat pituitary cells (membranes)
Sequence (P26684 21-426): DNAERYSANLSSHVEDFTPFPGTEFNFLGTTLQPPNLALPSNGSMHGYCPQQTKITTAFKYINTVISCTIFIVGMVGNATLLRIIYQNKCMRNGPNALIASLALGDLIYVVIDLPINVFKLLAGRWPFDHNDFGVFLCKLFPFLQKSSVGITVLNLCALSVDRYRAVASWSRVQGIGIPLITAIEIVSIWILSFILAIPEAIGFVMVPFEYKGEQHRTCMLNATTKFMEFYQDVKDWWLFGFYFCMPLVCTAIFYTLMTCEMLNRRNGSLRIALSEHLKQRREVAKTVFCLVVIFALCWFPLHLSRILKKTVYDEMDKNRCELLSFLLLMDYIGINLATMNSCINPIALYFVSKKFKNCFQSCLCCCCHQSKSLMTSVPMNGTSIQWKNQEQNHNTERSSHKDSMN
Experiment summary: [125I]ET-1 binding to membranes from MMQ cells (ETA receptor binding assay, Table 4)
Run conditions: test compound at 1 μM; 0.1 nM [125I]ET-1, MMQ cell membranes, 4 hours at 25° C.
Method: Preparation of Membranes from MMQ Cells: MMQ [MacLeod/MacQueen/Login cell line (prolactin secreting rat pituitary cells)] cells from 150 mL culture flasks were collected by centrifugation (1000×g for 10 min) and then homogenized in 25 mL of 10 mM Hepes (pH 7.4) containing 0.25 M sucrose and protease inhibitors [3 mM EDTA, 0.1 mM PMSF, and 5 μg/mL Pepstatin A] by a micro ultrasonic cell disrupter (Kontes). […] Protein content was determined by the Bio-Rad dye-binding protein assay. […]
Property name: % Inhibition of ETA at 1 μM (%)

# count of solved cases: 3
COc1ccc(C2C(C(=O)O)C(c3ccc4c(c3)OCO4)CN2CC(=O)N2CCCC(C)(C)C2)cc1 (stereo not shown) [Example 294]	77.7
CC[S+]([O-])CCN1CC(c2ccc3c(c2)OCO3)C(C(=O)O)C1c1ccc(OC)cc1 (stereo not shown) [Example 57]	93.2
CCCNC(=O)CN1CC(c2ccc3c(c2)OCO3)C(C(=O)O)C1c1ccc(OC)cc1 (stereo not shown) [Example 1D]	96.4

I = CCCCOCCN1CC(c2ccc3c(c2)OCO3)C(C(=O)O)C1c1ccc(OC)cc1 (stereo not shown) [Example 23]
II = COc1ccc(C2C(C(=O)O)C(c3ccc4c(c3)OCO4)CN2Cc2ccc(F)cc2)cc1 (stereo not shown) [Example 3]
Which of the two items, I and II , has the greater recorded % Inhibition of ETA at 1 μM? Identify your pick by its label.
I
(I: 85.9%, II: 42.2%)

###

System: ETA Receptor (Rattus norvegicus, UniProt P26684)
Construct: endogenous in cells; host or cells: MMQ rat pituitary cells (membranes)
Experiment summary: [125I]ET-1 binding to membranes from MMQ cells (ETA receptor binding assay, Table 4)
Run conditions: test compound at 1 μM; 0.1 nM [125I]ET-1, MMQ cell membranes, 4 hours at 25° C.
Property name: % Inhibition of ETA at 1 μM (%)

# count of solved cases: 4
C=C(C)CS(=O)(=O)N(CCC)CCN1CC(c2ccc3c(c2)OCO3)C(C(=O)O)C1c1ccc(OC)cc1 (stereo not shown) [Example 301]	96.7
CCCN(CCN1CC(c2ccc3c(c2)OCO3)C(C(=O)O)C1c1ccc(OC)cc1)S(=O)(=O)c1ccc(C)cc1 (stereo not shown) [Example 129]	100.1
C=CCNC(=O)CN1CC(c2ccc3c(c2)OCO3)C(C(=O)O)C1c1ccc(OC)cc1 (stereo not shown) [Example 14]	86.6
CCCCN(CCCC)C(=O)CN1CC(c2ccc3c(c2)OCO3)C(C(=O)O)C1c1ccccc1 (stereo not shown) [Example 152]	86.9

I = CCCCNC(=O)N1CC(c2ccc3c(c2)OCO3)C(C(=O)O)C1c1ccc(OC)cc1 (stereo not shown) [Example 9]
II = COc1ccc(C2C(C(=O)O)C(c3ccc4c(c3)OCO4)CN2C/C=C/CC(C)C)cc1 (stereo not shown) [Example 69D]
III = CC(C)OCCOc1ccc(C2C(C(=O)O)C(c3ccc4c(c3)OCO4)CN2CC(=O)NN(c2ccccc2)C(C)(C)C)cc1 (stereo not shown) [Example 560]
Arrange these molecules by their % Inhibition of ETA at 1 μM, starting with the largest number. Write the labels out in the order the request specifies.
I, II, III
(I: 69.2%, II: 37.4%, III: 0%)
